For each record, write down the corresponding IC50.
target: Rat NHE-3 (Rattus norvegicus); construct: expressed in transfected cells; host or cells: Opossum kidney (OK) cells (ATCC), transfected by electroporation; assay: Cell-based assay of NHE-3 activity (persistent inhibition, after washout); conditions: OK cells with rat NHE-3 gene, 60 min incubation, recovery initiated 40 min after compound washout; read-out: Rat NHE3 pIC50 (persistent) (converted)
Sequence (P26433 29-831): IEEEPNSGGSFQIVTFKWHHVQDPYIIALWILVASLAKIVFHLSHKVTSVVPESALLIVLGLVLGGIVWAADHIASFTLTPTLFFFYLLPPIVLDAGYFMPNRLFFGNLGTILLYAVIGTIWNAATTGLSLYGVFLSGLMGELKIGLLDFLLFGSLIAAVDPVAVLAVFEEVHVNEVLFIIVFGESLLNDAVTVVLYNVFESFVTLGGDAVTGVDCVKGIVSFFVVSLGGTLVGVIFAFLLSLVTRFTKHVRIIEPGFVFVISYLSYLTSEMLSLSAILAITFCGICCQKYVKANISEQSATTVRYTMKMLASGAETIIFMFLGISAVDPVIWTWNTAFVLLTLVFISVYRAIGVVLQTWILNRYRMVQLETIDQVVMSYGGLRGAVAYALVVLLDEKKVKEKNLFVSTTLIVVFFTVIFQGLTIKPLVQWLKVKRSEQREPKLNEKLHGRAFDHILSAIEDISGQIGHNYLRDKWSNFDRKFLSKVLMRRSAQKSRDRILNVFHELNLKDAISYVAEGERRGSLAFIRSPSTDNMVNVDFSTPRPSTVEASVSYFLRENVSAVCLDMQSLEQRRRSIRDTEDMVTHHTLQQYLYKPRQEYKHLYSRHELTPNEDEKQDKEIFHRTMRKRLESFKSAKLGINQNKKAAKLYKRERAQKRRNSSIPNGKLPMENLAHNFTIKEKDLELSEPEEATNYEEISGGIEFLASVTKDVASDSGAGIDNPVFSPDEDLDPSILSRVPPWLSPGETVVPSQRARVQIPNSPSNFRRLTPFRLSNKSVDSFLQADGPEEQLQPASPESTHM

Need IC50 of CN1Cc2c(Cl)cc(Cl)cc2[C@H](c2cccc(S(=O)(=O)NCCOCCOCCNC(=O)N(C)CCCN(CCCN(C)C(=O)NCCOCCOCCNS(=O)(=O)c3cccc([C@@H]4CN(C)Cc5c(Cl)cc(Cl)cc54)c3)CCCN(C)C(=O)NCCOCCOCCNS(=O)(=O)c3cccc([C@@H]4CN(C)Cc5c(Cl)cc(Cl)cc54)c3)c2)C1 , thanks.
< 100 nM

What value of IC50 has been reported for the following molecule? CN1Cc2c(Cl)cc(Cl)cc2[C@H](c2cccc(S(=O)(=O)NCCOCCOCCNC(=O)CCC(CCC(=O)NCCOCCOCCNS(=O)(=O)c3cccc([C@@H]4CN(C)Cc5c(Cl)cc(Cl)cc54)c3)(CCC(=O)NCCOCCOCCNS(=O)(=O)c3cccc([C@@H]4CN(C)Cc5c(Cl)cc(Cl)cc54)c3)NS(C)(=O)=O)c2)C1
< 100 nM

Recorded IC50 for CN1Cc2c(Cl)cc(Cl)cc2[C@H](c2cccc(S(=O)(=O)NCCOCCOCCNC(=O)NCCN(CCNC(=O)NCCOCCOCCNS(=O)(=O)c3cccc([C@@H]4CN(C)Cc5c(Cl)cc(Cl)cc54)c3)C(=O)CCCCCCCCCCC(=O)N(CCNC(=O)NCCOCCOCCNS(=O)(=O)c3cccc([C@@H]4CN(C)Cc5c(Cl)cc(Cl)cc54)c3)CCNC(=O)NCCOCCOCCNS(=O)(=O)c3cccc([C@@H]4CN(C)Cc5c(Cl)cc(Cl)cc54)c3)c2)C1 , please?
100 to 10000 nM

Consider the molecule shown here: CN1Cc2c(Cl)cc(Cl)cc2[C@H](c2cccc(S(=O)(=O)NCCOCCOCCOCCNC(=O)CCC(CCC(=O)NCCOCCOCCOCCNS(=O)(=O)c3cccc([C@@H]4CN(C)Cc5c(Cl)cc(Cl)cc54)c3)(CCC(=O)NCCOCCOCCOCCNS(=O)(=O)c3cccc([C@@H]4CN(C)Cc5c(Cl)cc(Cl)cc54)c3)NC(=O)Nc3ccccc3)c2)C1 What is its recorded IC50?
< 100 nM

Using the record for CN1Cc2c(Cl)cc(Cl)cc2[C@H](c2cccc(S(=O)(=O)NCCOCCOCCNC(=O)CCC(CCC(=O)NCCOCCOCCNS(=O)(=O)c3cccc([C@@H]4CN(C)Cc5c(Cl)cc(Cl)cc54)c3)(CCC(=O)NCCOCCOCCNS(=O)(=O)c3cccc([C@@H]4CN(C)Cc5c(Cl)cc(Cl)cc54)c3)[N+](=O)[O-])c2)C1 , report its IC50.
< 100 nM

Fill in the blank: the reported IC50 of CN1Cc2c(Cl)cc(Cl)cc2[C@H](c2cccc(S(=O)(=O)NCCOCCOCCOCCNC(=O)CCC(N)(CCC(=O)NCCOCCOCCOCCNS(=O)(=O)c3cccc([C@@H]4CN(C)Cc5c(Cl)cc(Cl)cc54)c3)CCC(=O)NCCOCCOCCOCCNS(=O)(=O)c3cccc([C@@H]4CN(C)Cc5c(Cl)cc(Cl)cc54)c3)c2)C1 is ____.
< 100 nM
